# system.tested: CYP2C19 (Homo sapiens)
# Sequence (P33261 whole entry): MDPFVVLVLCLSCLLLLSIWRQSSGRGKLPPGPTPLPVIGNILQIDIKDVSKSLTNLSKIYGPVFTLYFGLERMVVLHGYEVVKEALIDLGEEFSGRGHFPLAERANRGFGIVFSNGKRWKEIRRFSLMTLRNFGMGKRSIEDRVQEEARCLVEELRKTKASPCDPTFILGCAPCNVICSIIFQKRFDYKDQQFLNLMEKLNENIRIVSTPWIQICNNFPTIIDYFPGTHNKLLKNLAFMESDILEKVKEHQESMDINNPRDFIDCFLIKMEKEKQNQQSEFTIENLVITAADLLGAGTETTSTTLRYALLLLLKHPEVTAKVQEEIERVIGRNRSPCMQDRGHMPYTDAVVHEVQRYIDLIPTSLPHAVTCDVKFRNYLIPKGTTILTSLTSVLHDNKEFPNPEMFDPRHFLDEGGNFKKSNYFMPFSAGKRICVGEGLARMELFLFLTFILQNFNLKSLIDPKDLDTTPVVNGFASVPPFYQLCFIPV
# assay.procedure: Supersome CYP2C19 kinetic incubations
# Type: in vitro ADME
# Design: purchased Corning (Amsterdam, The Netherlands); host or cells: baculovirus-transfected insect cells
# settings: human, recombinant CYP2C19 Supersomes, pH 7.4, Km(app), Pathway 2 (detoxification of CPF to TCPy); Supersome CYP2C19
# Description: […] To normalize for differences in intrinsic CYP activity between Supersome™ and pooled HLMs and enable scaling of the activities to the in vivo situation, CYP-specific ISEF values need to be established. […] The samples obtained were analyzed by UPLC-PDA for acetaminophen, 4-hydroxymephenytoin, and 6β-hydroxytestosterone formation catalyzed by 1A2, 2C19 and 3A4, or LC–MS/MS for (±)-hydroxybupropion formation catalyzed by 2B6. […]
property.name: Km (µM)
The reply should be a number in µM, with the unit left off.

q: What does the data say about its Km? Entry: CCOP(=S)(OCC)Oc1nc(Cl)c(Cl)cc1Cl [CPF, Chlorpyrifos]
a: 1.37

Reference source: paper PMC9013686
